Reference source for all entries: ChEMBL document CHEMBL3885861

- Species on record: Rattus norvegicus
- MEASUREMENT NOTES: Open TG-GATES - Regimen: Daily Repeat
- Type: toxicity, organism-based, Sprague-Dawley
- Set-up: regimen Daily Repeat, gender Male, age 6 weeks
- EXPERIMENTAL SETUP: in vivo, po, 100 mg/kg, […], tissue Blood, route gavage, dose level Low, time 7 day
MEASURED ATTRIBUTE: Mono (%)

[[record]]
compound = "CC(S)C(=O)NCC(=O)O (centres undefined) [TIOPRONIN]"
measured_attribute = "Mono"
assay_value = 2.4

[[record]]
compound = "O=C(O)c1ccccc1Nc1ccccc1 [FENAMIC ACID]"
measured_attribute = "Mono"
assay_value = 2.6

[[record]]
compound = "CC(=O)[C@@]1(O)CC[C@H]2[C@@H]3C=C(Cl)C4=CC(=O)CC[C@]4(C)[C@H]3CC[C@@]21C [CHLORMADINONE]"
measured_attribute = "Mono"
assay_value = 2.2

[[record]]
compound = "CCCCNC(=O)NS(=O)(=O)c1ccc(C)cc1 [TOLBUTAMIDE]"
measured_attribute = "Mono"
assay_value = 2


====

- Species on record: Rattus norvegicus
- MEASUREMENT NOTES: Open TG-GATES - Regimen: Daily Repeat
- Type: toxicity, organism-based, Sprague-Dawley
- Design: regimen Daily Repeat, gender Male, age 6 weeks
- EXPERIMENTAL SETUP: in vivo, po, 300 mg/kg, […], tissue Blood, route gavage, dose level Middle, time 28 day
MEASURED ATTRIBUTE: MCV (fL)

[[record]]
compound = "CC(=O)[C@@]1(O)CC[C@H]2[C@@H]3C=C(Cl)C4=CC(=O)CC[C@]4(C)[C@H]3CC[C@@]21C"
assay_value = 54

[[record]]
compound = "O=C(O)c1ccccc1Nc1ccccc1"
assay_value = 54.1

[[record]]
compound = "CC(S)C(=O)NCC(=O)O (centres undefined)"
assay_value = 56.6

[[record]]
compound = "CCCCNC(=O)NS(=O)(=O)c1ccc(C)cc1 [TOLBUTAMIDE]"
assay_value = 55.2


====

- Species on record: Rattus norvegicus
- MEASUREMENT NOTES: Open TG-GATES - Regimen: Daily Repeat
- Type: toxicity, organism-based, Sprague-Dawley
- Set-up: regimen Daily Repeat, gender Male, age 6 weeks
- EXPERIMENTAL SETUP: in vivo, po, 0 mg/kg, 72 h, tissue Plasma, route gavage, dose level Control, time 3 day
MEASURED ATTRIBUTE: RALB

[[record]]
compound = "CC(=O)[C@@]1(O)CC[C@H]2[C@@H]3C=C(Cl)C4=CC(=O)CC[C@]4(C)[C@H]3CC[C@@]21C"
assay_value = "3 g/dL"

[[record]]
compound = "CCN(CC)C(=S)SSC(=S)N(CC)CC"
assay_value = "3.1 g/dL"

[[record]]
compound = "CCO"
assay_value = "3.9 g/dL"

[[record]]
compound = "CN(CCOc1ccc(CC2SC(=O)NC2=O)cc1)c1ccccn1.O=C(O)/C=C\\C(=O)O (stereo not given) [ROSIGLITAZONE MALEATE]"
assay_value = "3.9 g/dL"

[[record]]
compound = "NS(=O)(=O)c1cc(C(=O)O)c(NCc2ccco2)cc1Cl [FUROSEMIDE]"
assay_value = "2.7 g/dL"


====

- Species: Rattus norvegicus
- MEASUREMENT NOTES: Open TG-GATES - Regimen: Single
- Assay type: toxicity, organism-based, Sprague-Dawley
- Set-up: regimen Single, gender Male, age 6 weeks
- EXPERIMENTAL SETUP: in vivo, po, 0 mg/kg, 6 h, tissue Plasma, route gavage, dose level Control
// reported AST for each item listed
MEASURED ATTRIBUTE: AST

[[record]]
compound = "O=c1ccc2ccccc2o1 [COUMARIN]"
assay_value = "66.6 IU/L"

[[record]]
compound = "Nc1ccc(Cc2ccc(N)cc2)cc1"
assay_value = "75 IU/L"

[[record]]
compound = "CN(C)CCCN1c2ccccc2Sc2ccc(Cl)cc21 [CHLORPROMAZINE]"
assay_value = "79.8 IU/L"

[[record]]
compound = "CCO [ALCOHOL]"
assay_value = "58.2 IU/L"

[[record]]
compound = "O=C(O)c1ccccc1Nc1ccccc1 [FENAMIC ACID]"
assay_value = "77.4 IU/L"

[[record]]
compound = "COc1cc2ncnc(Nc3ccc(F)c(Cl)c3)c2cc1OCCCN1CCOCC1 [GEFITINIB]"
assay_value = "71 IU/L"

[[record]]
compound = "CN(CCOc1ccc(CC2SC(=O)NC2=O)cc1)c1ccccn1.O=C(O)/C=C\\C(=O)O (stereo not drawn) [ROSIGLITAZONE MALEATE]"
assay_value = "66.6 IU/L"

[[record]]
compound = "CN(C/C=C/C#CC(C)(C)C)Cc1cccc2ccccc12 [TERBINAFINE]"
assay_value = "69.6 IU/L"


====

- Species on record: Rattus norvegicus
- MEASUREMENT NOTES: Open TG-GATES - Regimen: Single
- Type: toxicity, organism-based, Sprague-Dawley
- Design: regimen Single, gender Male, age 6 weeks
- EXPERIMENTAL SETUP: in vivo, po, 0 mg/kg, 24 h, tissue Plasma, route gavage, dose level Control
Measured TC of individual entries
MEASURED ATTRIBUTE: TC (mg/dL)

[[record]]
compound = "CN(C/C=C/C#CC(C)(C)C)Cc1cccc2ccccc12 [TERBINAFINE]"
measured_attribute = "TC"
assay_value = 74.4

[[record]]
compound = "CN(C)CCCN1c2ccccc2Sc2ccc(Cl)cc21 [CHLORPROMAZINE]"
measured_attribute = "TC"
assay_value = 78.6

[[record]]
compound = "O=c1ccc2ccccc2o1 [COUMARIN]"
measured_attribute = "TC"
assay_value = 76

[[record]]
compound = "O=C(O)c1ccccc1Nc1ccccc1 [FENAMIC ACID]"
measured_attribute = "TC"
assay_value = 77.6

[[record]]
compound = "COc1cc2ncnc(Nc3ccc(F)c(Cl)c3)c2cc1OCCCN1CCOCC1 [GEFITINIB]"
measured_attribute = "TC"
assay_value = 79

[[record]]
compound = "CN(CCOc1ccc(CC2SC(=O)NC2=O)cc1)c1ccccn1.O=C(O)/C=C\\C(=O)O (centres undefined) [ROSIGLITAZONE MALEATE]"
measured_attribute = "TC"
assay_value = 94.4

[[record]]
compound = "CCN(CC)C(=S)SSC(=S)N(CC)CC"
measured_attribute = "TC"
assay_value = 78.4

[[record]]
compound = "CC(=O)[C@@]1(O)CC[C@H]2[C@@H]3C=C(Cl)C4=CC(=O)CC[C@]4(C)[C@H]3CC[C@@]21C [CHLORMADINONE]"
measured_attribute = "TC"
assay_value = 85

[[record]]
compound = "CC(S)C(=O)NCC(=O)O (centres undefined) [TIOPRONIN]"
measured_attribute = "TC"
assay_value = 75.2

[[record]]
compound = "Nc1ccc(Cc2ccc(N)cc2)cc1"
measured_attribute = "TC"
assay_value = 72

[[record]]
compound = "CCCCNC(=O)NS(=O)(=O)c1ccc(C)cc1 [TOLBUTAMIDE]"
measured_attribute = "TC"
assay_value = 89.8

[[record]]
compound = "NS(=O)(=O)c1cc(C(=O)O)c(NCc2ccco2)cc1Cl [FUROSEMIDE]"
measured_attribute = "TC"
assay_value = 81.6

[[record]]
compound = "CCO [ALCOHOL]"
measured_attribute = "TC"
assay_value = 83

[[record]]
compound = "COc1ccc([C@@H]2Sc3ccccc3N(CCN(C)C)C(=O)[C@@H]2OC(C)=O)cc1 [DILTIAZEM]"
measured_attribute = "TC"
assay_value = 76.6


====

- Species: Rattus norvegicus
- MEASUREMENT NOTES: Open TG-GATES - Regimen: Daily Repeat
- Type: toxicity, organism-based, Sprague-Dawley
- Parameters: regimen Daily Repeat, gender Male, age 6 weeks
- EXPERIMENTAL SETUP: in vivo, po, 0 mg/kg, […], tissue Blood, route gavage, dose level Control, time 14 day
MEASURED ATTRIBUTE: MCV (fL)

[[record]]
compound = "CCO"
assay_value = 59.9

[[record]]
compound = "CCN(CC)C(=S)SSC(=S)N(CC)CC"
assay_value = 59.4

[[record]]
compound = "CCCCC1C(=O)N(c2ccccc2)N(c2ccccc2)C1=O"
assay_value = 62.7

[[record]]
compound = "CCCCNC(=O)NS(=O)(=O)c1ccc(C)cc1 [TOLBUTAMIDE]"
assay_value = 60.7

[[record]]
compound = "COc1ccc([C@@H]2Sc3ccccc3N(CCN(C)C)C(=O)[C@@H]2OC(C)=O)cc1"
assay_value = 62.3

[[record]]
compound = "CN(C/C=C/C#CC(C)(C)C)Cc1cccc2ccccc12"
assay_value = 59.1

[[record]]
compound = "O=c1ccc2ccccc2o1"
assay_value = 62

[[record]]
compound = "Nc1ccc(Cc2ccc(N)cc2)cc1"
assay_value = 59.3

